experiment: Antimicrobial activity against Eberthella typhosa ATCC 14028 incubated for 24 hrs by NCCLS protocol based method; format: functional; conditions: ATCC 14028, 24 h
Measured MIC accompanies every entry in the list below.

# smilesStr, MIC
data = [
    ("CCCCCCCCCCCCCCCCCc1nccn1Cc1cc(OC)c(O)c2c[n+]3c(cc12)-c1cc2c(cc1CC3)OCO2.[Cl-]", "512 µg/mL"),
    ("CCCCc1nccn1Cc1cc(OC)c(O)c2c[n+]3c(cc12)-c1cc2c(cc1CC3)OCO2.[Cl-]", "128 µg/mL"),
    ("CCc1nccn1Cc1cc(OC)c(O)c2c[n+]3c(cc12)-c1cc2c(cc1CC3)OCO2.[Cl-]", "64 µg/mL"),
]

* * *

test system: Micrococcus luteus; assay: Antimicrobial activity against Micrococcus luteus ATCC 4698 incubated for 24 hrs by NCCLS protocol based method; assay type: functional; conditions: ATCC 4698, 24 h

# smilesStr, measuredTarget, MIC, µg/mL
records = [
    ("COc1cc(Cn2cnc(C)c2)c2cc3[n+](cc2c1O)CCc1cc2c(cc1-3)OCO2.[Cl-]", "Micrococcus luteus", 16),
    ("CCCCCCCCCCCCCCCCCc1nccn1Cc1cc(OC)c(O)c2c[n+]3c(cc12)-c1cc2c(cc1CC3)OCO2.[Cl-]", "Micrococcus luteus", 256),
    ("CCc1nccn1Cc1cc(OC)c(O)c2c[n+]3c(cc12)-c1cc2c(cc1CC3)OCO2.[Cl-]", "Micrococcus luteus", 16),
]

* * *

Measured MIC accompanies every entry in the list below.
system: Micrococcus luteus; test: Antimicrobial activity against Micrococcus luteus ATCC 4698 incubated for 24 hrs by NCCLS protocol based method; assay type: functional; settings: ATCC 4698, 24 h
quantityKind: MIC

# molecule, measuredTarget, experimentalResult
rows = [
    ("COc1cc(Cn2ccnc2)c2cc3[n+](cc2c1O)CCc1cc2c(cc1-3)OCO2.[Cl-]", "Micrococcus luteus", "16 µg/mL"),
    ("CCCCCCCCCCCc1nccn1Cc1cc(OC)c(O)c2c[n+]3c(cc12)-c1cc2c(cc1CC3)OCO2.[Cl-]", "Micrococcus luteus", "128 µg/mL"),
    ("CCCc1nccn1Cc1cc(OC)c(O)c2c[n+]3c(cc12)-c1cc2c(cc1CC3)OCO2.[Cl-]", "Micrococcus luteus", "32 µg/mL"),
    ("COc1ccc2cc3[n+](cc2c1OC)CCc1cc2c(cc1-3)OCO2.[Cl-] [BERBERINE CHLORIDE]", "Micrococcus luteus", "512 µg/mL"),
]

Hello, the source for this data is ChEMBL document CHEMBL4428036, in case you need it.
